Can you tell me AUC of viability dose-response curve for the items I'm about to list?
- Test system: P12-Ichikawa
- Protocol description: AUC of viability dose-response curve (% viability x log10 dose units); higher = less sensitive
- Measurement setup: RPMI 5 mM glucose + 10% dialyzed FBS; 48 h

>>> meas_value("CC(C)(O)CC(=O)NCCn1ccc2ncnc(Nc3ccc(Oc4cccc(C(F)(F)F)c4)c(Cl)c3)c21")
436
>>> meas_value("CC(C)CN(C[C@@H](O)[C@H](Cc1ccccc1)NC(=O)O[C@H]1CCOC1)[S+](=O)([O-])c1ccc(N)cc1")
362
>>> meas_value("CC12CC3CC(C)(C1)CC(N)(C3)C2")
467
>>> meas_value("c1nc2c(NC3CCCCC3)nc(Nc3ccc(N4CCOCC4)cc3)nc2[nH]1")
384

Go through the list and state AUC of viability dose-response curve for each entry.
1. C/C=C/C(=O)N(CC)c1ccccc1C
2. COc1ccc2c(c1)CN(C)CC2c1ccc(Cl)c(Cl)c1 (configuration not stated)
3. CN(C)CC(C)(C)CNc1nn2c(-c3ccccc3)nnc2cc1C1CCC1

[432, 461, 433]

====

- Tested on: P12-Ichikawa
- Protocol description: cell viability relative to DMSO control; higher = less cytotoxic
- Measurement setup: HPLM + 10% dialyzed FBS; 48 h; 0.00702 µM
Measured attribute: cell viability
Give your result as the value with the unit written after it.

Go through the list and state cell viability for each entry.
1. COc1ccc2c(c1)[C@]13CCCCC1C(C2)N(C)CC3 (some centres undefined)
2. CC(=O)Oc1ccccc1C(=O)Nc1ncc([N+](=O)[O-])s1
3. CC(C(=O)O)c1ccc2c(c1)CC(=O)c1ccccc1S2 (centres undefined)
4. CC12CC3CC(C)(C1)CC(N)(C3)C2
5. O=C(CCCN1CCN(c2ccc(F)cc2)CC1)NC1c2ccccc2CSc2ccccc21 (centres undefined)
6. O=C(O)CCNC(=O)c1ccc(/N=N/c2ccc(O)c(C(=O)O)c2)cc1
7. COc1cc2c(cc1OC)CN(CCc1ccc(NC(=O)c3cc(OC)c(OC)cc3NC(=O)c3cnc4ccccc4c3)cc1)CC2

114%
106%
107%
115%
123%
114%
115%

Go through the list and state cell viability for each entry.
1. C=C[C@H]1CN2CCC1C[C@@H]2C(O)c1ccnc2ccc(OC)cc12 (some centres undefined)
2. COC1=C(OCCCN2CCOCC2)C=CC\3=C1/N=C(/NC(=O)C4=CN=C(N)N=C4)N5CC/N=C35
3. O=C(O)c1cc(/N=N/c2ccc([S+](=O)([O-])Nc3ccccn3)cc2)ccc1O

["117%", "99.5%", "112%"]

Go through the list and state cell viability for each entry.
1. CC[C@H]1OC(=O)[C@H](C)C(=O)[C@H](C)[C@@H](O[C@H]2O[C@H](C)C[C@H](N(C)C)[C@H]2O)[C@](C)(OC)C[C@@H](C)C(=O)[C@H](C)[C@H]2N(CCCCn3cnc(-c4cccnc4)c3)C(=O)O[C@]12C
2. Cc1ccc([S+](=O)([O-])OCC(=O)Nc2ccc(C(=O)O)c(O)c2)cc1
3. CC#CCn1c(N2CCC[C@@H](N)C2)nc2c1c(=O)n(Cc1nc(C)c3ccccc3n1)c(=O)n2C
4. O=C(O)C(=O)c1cn(Cc2ccccc2)c2ccc(-c3ccc(OC(F)(F)F)cc3)cc12

["98.3%", "122%", "99.3%", "109%"]

meta.source: the supplement of paper PMC11451515
